- System: HCT-116 colon
- method_notes: NCI tumour cell line growth inhibition, 48 h
property_name: TGI

> print(dat)
                                   compound  property.name  assay.value
1  Clc1ccc(Cc2nc3cc(Cl)c(Cl)cc3n2CC2CCCN3CCCCC23)cc1Cl (stereo not drawn)            TGI      10.7 µM

Enquiry: Given the entry Cc1cccc(C)c1NC(=O)CCC(=O)NNc1nnc(C)n1N , report its measured TGI.
Return: > 100 µM

Enquiry: Ok, now C=CC(O)(CBr)CCC(Br)C(C)(C)Cl (stereo not drawn)
Return: > 10 µM

Enquiry: And for CCC(=O)OCC1OC(n2cnc3c(=S)nc(N)[nH]c32)C(OC(=O)CC)C1OC(=O)CC (stereo not drawn) ?
Return: > 100 µM

Enquiry: Param item: COC(=O)[C@@H]1CCc2nc3ccccc3c(=O)n21
Return: > 100 µM

Enquiry: Check C1CSC2=C(S1)SC1=C(S2)SC(=C2SC3=C(SC4=C(SCCS4)S3)S2)S1 too.
Return: > 100 µM

---

- Test system: OVCAR-8 ovarian
- method_notes: NCI tumour cell line growth inhibition, 48 h
property_name: TGI

Here is how some molecules turned out for TGI.
> print(dat)
                                   molecule  property.name  assay.value
1  CCOC(=O)c1cc(C(=O)c2cc(OC)cc(OC)c2)n2nc(C)ccc12            TGI     > 100 µM
2  CO[C@H]1/C=C/[C@@](C)(O)/C=C/C(=O)O[C@H](C)[C@@H](C)CC/C=C/1C            TGI     > 100 µM
3  C=C(C)[C@@H]1/C=C(/C(C)C)CC[C@@]2(C)OC2CC[C@H](C)CC1=O (some centres undefined)            TGI    > 70.5 µM
4  CCOC(=O)CNC(=O)C(CSCC1C(=O)Nc2ccccc21)NC(=O)CCC(N)C(=O)OCC (centres undefined)            TGI      11.4 µM
5  CC(c1ccccc1)N1C(=O)CSC1=S (centres undefined)            TGI     > 100 µM

Enquiry: Data request, read-out TGI, for COc1cc(C(=O)/C=C/c2c(-c3cccs3)nc3sccn23)cc(OC)c1OC
Return: 3.7 µM

Enquiry: How about CCCOc1ccc2sc(NC(=O)c3cc([N+](=O)[O-])cc([N+](=O)[O-])c3)nc2c1 ?
Return: > 100 µM

Enquiry: Also CCOC(=O)c1ccc(N=C2S/C(=C\C(=S)Nc3ccccc3)N(c3ccccc3)C2=Nc2ccc(C(=O)OCC)cc2)cc1 , if possible.
Return: > 100 µM

Enquiry: Request: CCC(=O)Nc1cccc(NC(=O)c2c(Cl)c(Cl)c(Cl)c(Cl)c2-c2nc3ccccc3[nH]2)c1
Return: > 100 µM

---

TGI values by entry
- Test system: SN12C renal
- method_notes: NCI tumour cell line growth inhibition, 48 h

> print(dat)
                                   compound  assay.value
1       COc1ccc(Cc2nccc3cc(OC)c(OC)cc23)cc1     > 100 µM
2       COC(=O)[C@@H]1CCc2nc3ccccc3c(=O)n21     > 100 µM
3  COc1ccc(-c2cc(C(=O)N3N=C(c4ccc(N)cc4)CC3c3ccc(Cl)cc3)c3ccccc3n2)cc1 (configuration not stated)     > 100 µM

Enquiry: Sample Cc1ccc(O)c(-c2cc(-c3cccc(Br)c3)c(C#N)c(N)n2)c1 — what was its TGI?
Return: 49.7 µM

Enquiry: Likewise for CC(C)(C)[Si](C)(C)OC1(CCc2ccccc2OS(=O)(=O)C(F)(F)F)CCCC=C1COCc1ccccc1 (configuration not stated) ?
Return: > 100 µM

Enquiry: Next compound: Nc1cnc(Nc2cccc3ccccc23)o1
Return: > 10 µM

Enquiry: Now this one: CC(CN(C)C)C(C#N)(c1ccccc1)c1ccccc1 (configuration not stated)
Return: > 100 µM

---

- Tested on: ACHN renal
- method_notes: NCI tumour cell line growth inhibition, 48 h
property_name: TGI

Past entries and their recorded results:
> print(dat)
                                   compound  assay.value
1                    Nc1ccc(Sc2nnc(N)s2)cc1     > 100 µM
2  NC(N)=Nc1ccc(CC(N)C(=O)NCC(=O)C(CC(=O)O)c2ncc(NC(=O)C(F)(F)F)o2)cc1 (stereo not drawn)      > 25 µM
3    NCCCNc1nc2ccccc2c2c(=O)c3cccc(F)c3sc12      2.43 µM
4  O=c1c(-c2ccccc2)c(SCCN2CCCC2)n(-c2ccccc2)c(=S)n1-c1ccccc1     > 100 µM
5  O=c1c(Nc2ccccc2)cn(CCOc2ccccc2)c(=O)n1CCOc1ccccc1     > 100 µM

Let's switch to this compound now.
Enquiry: Which TGI is reported for this compound? COc1ccc(C(c2ccc(OC)cc2)N2C(=O)CCC2C(=O)O)cc1 (stereo not drawn)
Return: > 100 µM

---

- Test system: IGROV1 ovarian
- method_notes: NCI tumour cell line growth inhibition, 48 h
property_name: TGI

As a guide, the following entries are already answered.
> print(dat)
                                   compound  property.name  assay.value
1   Clc1ccc(N=C2c3ccccc3CN2c2ccc(Cl)cc2)cc1            TGI     > 100 µM
2  O=C(C(=O)c1cc(-c2ccccc2)nc2ccc3ccccc3c12)c1ccccc1            TGI     > 100 µM
3                 [N-]=[N+]=CC(=O)OC1CCOCC1            TGI     > 100 µM
4         O=C1NC(=O)/C(=C/c2ccc3ncccc3c2)S1            TGI    > 21.7 µM
5  N#Cc1cc(-c2ccnc(Nc3ccc(NC(=O)CCl)cc3)n2)ccc1N1CCCC1            TGI      1.18 µM

Enquiry: Name the recorded TGI for COc1cccc(-c2nnc3c(-c4ccccc4)nc4ccccc4n23)c1 .
Return: > 100 µM

Enquiry: What about COC(=O)C1=CC(=O)OC1(OO)c1ccc(Br)cc1 (stereo unspecified) ?
Return: > 100 µM

Enquiry: Please answer likewise for COc1cc(Nc2ncc3c(C)nc(-c4cccc(C(F)(F)F)c4)n3n2)cc(OC)c1OC
Return: 11.2 µM

Enquiry: What do you get for NCCCNC(=O)c1csc(NC(=O)c2csc(NC(=O)CCCN)n2)n1 ?
Return: > 100 µM

Enquiry: Ok, now NCCCNc1nc2ccccc2c2c(=O)c3cccc(F)c3sc12
Return: 2.22 µM

Enquiry: Thanks! And CNc1ccccc1S(=O)(=O)c1ccccc1[N+](=O)[O-] ?
Return: > 100 µM

---

Each entry below lists one item and its recorded GI50 value.
- Test system: LOX IMVI melanoma
- method_notes: NCI tumour cell line growth inhibition, 48 h

Examples with answers:
> print(dat)
                                   compound  assay.value
1                       CCCCN1C=CCN(CCCC)C1      68.5 µM
2  COc1ccc(-c2cc(C(=O)N3N=C(c4ccc(N)cc4)CC3c3ccc(Cl)cc3)c3ccccc3n2)cc1 (stereo unspecified)      1.56 µM
3  O=C(CCCBr)Nc1ccccc1C#C/C=C\C#Cc1ccccc1C(F)(F)F      22.6 µM

Enquiry: Notebook entry, LOX IMVI melanoma assay: GI50 of O=C(/C=C/c1c(-c2ccccc2)[nH]c2ccccc12)S(=O)(=O)c1ccccc1 = ?
Return: > 100 µM

Enquiry: Could you do the same for CC(c1ccccc1)N1C(=O)CSC1=S (stereo unspecified) , please?
Return: 0.446 µM

Enquiry: Try the compound C1C[OH+]CCNCC[OH+]CC[OH+]CCN1.O.[Cl-].[Pt+4]
Return: > 100 µM

Enquiry: Param item: COc1cc(/C=C/[N+](=O)[O-])c([N+](=O)[O-])cc1OC
Return: 1.68 µM

---

Overview of reported TGI across a group of compounds:
- Tested on: T-47D breast
- method_notes: NCI tumour cell line growth inhibition, 48 h

Some compounds with known TGI results, for comparison:
compound	TGI
CCC(=O)OCC1OC(n2cnc3c(=S)nc(N)[nH]c32)C(OC(=O)CC)C1OC(=O)CC (stereo not given)	43.8 µM
COc1ccc(C(c2ccc(OC)cc2)N2C(=O)CCC2C(=O)O)cc1 (stereo not given)	> 100 µM
O=C(c1ccc(Oc2ccccc2)cc1Cl)c1c[nH]c2ncnc(N[C@@H]3CC[C@@H](CO)OC3)c12	6.83 µM

Enquiry: Give the measured TGI of CCCCN1C=CCN(CCCC)C1 .
Return: > 100 µM

Enquiry: How about this compound: CCn1cc(C(=O)O)c(=O)c2ccc(C)nc21
Return: > 100 µM

Enquiry: Now try C#CC1(O)C(COP(=O)(O)OC(COCCCCCCCCCCCCCCCCCC)COP(=O)(O)OCC2OC(n3cc(C)c(=O)[nH]c3=O)CC2N=[N+]=[N-])OC(n2ccc(N)nc2=O)C1O (stereo not given) .
Return: > 77 µM

Enquiry: Field entry: Cc1ccc(S(=O)(=O)N/N=C2/C3CCC(C3)C2c2ccccc2)cc1 (stereo not given)
Return: > 100 µM

Enquiry: Ok, now CO[C@H]1/C=C/[C@@](C)(O)/C=C/C(=O)O[C@H](C)[C@@H](C)CC/C=C/1C
Return: > 100 µM

Enquiry: Then this compound: O=C(O)C1(Nc2ccc(Cl)cc2)CCCC1
Return: > 100 µM

Enquiry: Next compound: COc1cc(C2CC(c3ccc(SC)cc3)=NN2C(C)=O)cc(OC)c1OC (stereo not given)
Return: > 100 µM

Enquiry: Likewise for COc1cc2c(Oc3ccc4[nH]c(C)cc4c3F)ncnc2cc1OCCCN1CCCC1 ?
Return: 4.72 µM

Enquiry: Could you do the same for FC(F)(F)c1ccc2c(c1)nc(-c1ccccc1)n2CC1CCCN2CCCCC12 (stereo not given) , please?
Return: 71.7 µM

Enquiry: # iterate: CCOc1cc(NC(C)=O)ccc1C(=O)NNS(=O)(=O)c1ccc(Cl)cc1Cl
Return: > 50 µM

Enquiry: Next compound: C=CC(O)(CBr)CCC(Br)C(C)(C)Cl (stereo not given)
Return: > 10 µM

Enquiry: Now the same for CCCCc1ccc(NS(=O)(=O)c2cc3c4c(c2)CCN4C(=O)CC3)cc1
Return: 72.1 µM

FYI, the data here is from PubChem BioAssay (NCI).
